- assay_text: Plasma exposure in mice
- Type: in vivo
- condition_description: mouse, po 10 mg/kg, male CD1 mice
Below, each entry is listed with its recorded AUC(0-t).
Returns: string containing the numeric result and its unit.

// known answers, use as guide
CC(C)C[C@H](NCCc1cc(F)c(-n2c(N)c(C(=O)c3ccc(F)cc3F)ccc2=O)c(F)c1)C(=O)OC(C)(C)C | 75 ng·h/mL
C[C@H](NCCc1cc(F)c(-n2c(N)c(C(=O)c3ccc(F)cc3F)ccc2=O)c(F)c1)C(=O)OC(C)(C)C | 102 ng·h/mL

Field request: AUC(0-t) | item: CC(C)C[C@H](NCCc1cc(F)c(-n2c(N)c(C(=O)c3ccc(F)cc3F)ccc2=O)c(F)c1)C(=O)OC1CCCC1
14 ng·h/mL

====

- measured_target: p38 MAP Kinase a (Homo sapiens (Human), UniProt Q16539)
- Sequence (Q16539 whole entry): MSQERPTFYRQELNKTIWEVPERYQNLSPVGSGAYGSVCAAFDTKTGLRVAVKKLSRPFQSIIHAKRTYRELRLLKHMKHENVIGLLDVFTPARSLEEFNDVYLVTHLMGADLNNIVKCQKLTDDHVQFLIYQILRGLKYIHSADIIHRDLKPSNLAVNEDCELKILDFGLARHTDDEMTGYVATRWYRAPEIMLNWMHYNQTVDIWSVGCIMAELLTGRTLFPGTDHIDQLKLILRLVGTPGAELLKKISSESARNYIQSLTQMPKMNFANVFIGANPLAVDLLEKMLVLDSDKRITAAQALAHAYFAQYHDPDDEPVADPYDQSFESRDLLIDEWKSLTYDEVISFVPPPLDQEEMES
- assay_text: p38 MAP kinase enzyme assay (radiometric filter-binding)
- Type: biochemical
- condition_description: corresponding acid (hydrolysis product of the named ester) tested; read-out: B—acid enzyme assay (p38 kinase A (invitrogen)), IC50
measurement_name: pIC50
Note on pIC50: it is the negative log10 of concentration, concentration in mol/L.

CC(C)C[C@H](NCCc1ccc(-n2c(N)c(C(=O)c3ccc(F)cc3)ccc2=O)cc1)C(=O)OC(C)(C)C | 6.93
C[C@@H](O)[C@H](NCCc1ccc(-n2c(N)c(C(=O)c3ccc(F)cc3F)ccc2=O)cc1)C(=O)OC1CCCC1 | 7.25

Field request: pIC50 | item: C[C@H](NCCc1cc(F)c(-n2c(N)c(C(=O)c3ccc(F)cc3F)ccc2=O)c(F)c1)C(=O)OC(C)(C)C
9.00

Field request: pIC50 | item: CC(C)C[C@H](NCCc1ccc(-n2c(N)c(C(=O)c3ccc(F)cc3F)ccc2=O)cc1)C(=O)OC(C)(C)C
7.24

====

Below, each entry is listed with its recorded IC50.
- measured_target: p38 MAP Kinase a (Homo sapiens (Human))
- assay_text: p38 MAP kinase enzyme assay (radiometric filter-binding)
- Format: biochemical
- condition_description: corresponding acid (hydrolysis product of the named ester) tested; read-out: B—acid enzyme assay (p38 kinase A (invitrogen)), IC50
- Procedure: The ability of compounds to inhibit p38 MAP a Kinase activity was measured in an assay performed by Upstate (Dundee UK). In a final reaction volume of 25 μL, p38 MAP Kinase a (5-10 mU) is incubated with 25 mM Tris pH 7.5, 0.002 mMEGTA, 0.33 mg/mL myelin basic protein, 10 mM MgAcetate and [g-33p-ATP] (specific activity approx. 500 cpm/pmol, concentration as required). The reaction is initiated by the addition of the MgATP mix. […]
Only the number, expressed in nM, is required.

// known answers, use as guide
CC(C)C[C@H](NCCc1cc(F)c(-n2c(N)c(C(=O)c3ccc(F)cc3F)ccc2=O)c(F)c1)C(=O)OC1CCCC1 | 1
CC(C)C[C@H](NCCCCCOc1cc(F)c(-n2c(N)c(C(=O)c3ccc(F)cc3F)ccc2=O)c(F)c1)C(=O)OC1CCCC1 | 2
Nc1c(C(=O)c2ccc(F)cc2F)ccc(=O)n1-c1c(F)cc(CCN[C@H](C(=O)OC2CCCC2)c2ccccc2)cc1F | 1

In the following, a different compound is considered.
Field request: IC50 | item: CC(C)(C)OC[C@H](NCCc1cc(F)c(-n2c(N)c(C(=O)c3ccc(F)cc3F)ccc2=O)c(F)c1)C(=O)OC(C)(C)C
1

====

- measured_target: p38 MAP Kinase a (Homo sapiens (Human), UniProt Q16539)
- assay_text: p38 MAP kinase enzyme assay (radiometric filter-binding)
- Format: biochemical
- condition_description: ester tested; read-out: A—ester enzyme assay (p38 kinase A (invitrogen)), IC50
measurement_name: IC50 (nM)
Only the number, expressed in nM, is required.

CC(C)C[C@H](NCCc1cc(F)c(-n2c(N)c(C(=O)c3ccc(F)cc3F)ccc2=O)c(F)c1)C(=O)OC1CCCC1 | 231

Please provide the recorded IC50 for CC(C)C[C@H](NCCc1ccc(-n2c(N)c(C(=O)c3ccc(F)cc3F)ccc2=O)cc1)C(=O)OC(C)(C)C , tested on p38 MAP Kinase a (Homo sapiens (Human), UniProt Q16539).
330

Please provide the recorded IC50 for C[C@@H](O)[C@H](NCCc1ccc(-n2c(N)c(C(=O)c3ccc(F)cc3F)ccc2=O)cc1)C(=O)OC1CCCC1 , tested on p38 MAP Kinase a (Homo sapiens (Human), UniProt Q16539).
68

Please provide the recorded IC50 for CC(C)[C@H](NCCc1cc(F)c(-n2c(N)c(C(=O)c3ccc(F)cc3F)ccc2=O)c(F)c1)C(=O)OC1CCCC1 , tested on p38 MAP Kinase a (Homo sapiens (Human), UniProt Q16539).
22

Please provide the recorded IC50 for CC(C)C[C@@H](NCCc1cc(F)c(-n2c(N)c(C(=O)c3ccc(F)cc3F)ccc2=O)c(F)c1)C(=O)OC(C)(C)C , tested on p38 MAP Kinase a (Homo sapiens (Human), UniProt Q16539).
167

Please provide the recorded IC50 for C[C@H](NCCc1cc(F)c(-n2c(N)c(C(=O)c3ccc(F)cc3F)ccc2=O)c(F)c1)C(=O)OC(C)(C)C , tested on p38 MAP Kinase a (Homo sapiens (Human), UniProt Q16539).
12

Please provide the recorded IC50 for NCC[C@H](NCCCOc1cc(F)c(-n2c(N)c(C(=O)c3ccc(F)cc3F)ccc2=O)c(F)c1)C(=O)OC1CCCC1 , tested on p38 MAP Kinase a (Homo sapiens (Human), UniProt Q16539).
1

====

- measured_target: UniProtKB Q16539
- assay_text: p38 MAP kinase enzyme assay (radiometric filter-binding)
- Format: biochemical
- condition_description: corresponding acid (hydrolysis product of the named ester) tested; read-out: B—acid enzyme assay (p38 kinase A (invitrogen)), IC50
Below, each entry is listed with its recorded IC50.
Only the number, expressed in nM, is required.

// known answers, use as guide
NCC[C@H](NCCCOc1cc(F)c(-n2c(N)c(C(=O)c3ccc(F)cc3F)ccc2=O)c(F)c1)C(=O)OC1CCCC1 | 5
CC(C)(C)OC[C@H](NCCc1cc(F)c(-n2c(N)c(C(=O)c3ccc(F)cc3F)ccc2=O)c(F)c1)C(=O)OC1CCCC1 | 1
CC(C)C[C@@H](NCCc1cc(F)c(-n2c(N)c(C(=O)c3ccc(F)cc3F)ccc2=O)c(F)c1)C(=O)OC(C)(C)C | 2

Please provide the recorded IC50 for C[C@H](NCCc1ccc(-n2c(N)c(C(=O)c3ccc(F)cc3F)ccc2=O)cc1)C(=O)OC(C)(C)C , tested on UniProtKB Q16539.
58

====

- measured_target: p38 MAP Kinase a (Homo sapiens (Human))
- assay_text: p38 MAP kinase enzyme assay (radiometric filter-binding)
- Format: biochemical
- condition_description: corresponding acid (hydrolysis product of the named ester) tested; read-out: B—acid enzyme assay (p38 kinase A (invitrogen)), IC50
measurement_name: pIC50
Note on pIC50: it is the negative log10 of concentration, concentration in mol/L.

CC(C)C[C@H](NCCc1cc(F)c(-n2c(N)c(C(=O)c3ccc(F)cc3F)ccc2=O)c(F)c1)C(=O)OC(C)(C)C | 9.00
CC(C)C[C@H](NCCc1cc(F)c(-n2c(N)c(C(=O)c3ccc(F)cc3)ccc2=O)c(F)c1)C(=O)OC1CCCC1 | 9.00

Field request: pIC50 | item: CC(C)C[C@H](NCCCCCOc1cc(F)c(-n2c(N)c(C(=O)c3ccc(F)cc3F)ccc2=O)c(F)c1)C(=O)OC(C)(C)C
8.70
